Test system: Vero E6 infected with SARS-CoV-2
Test: SARS-CoV-2 infection rate relative to infected DMSO; higher = more infection, active = 60 or less
Conditions: 24 h
READOUT LABEL: SARS-CoV-2 infection rate (%)
Write the answer as a number in %, unit excluded.

input: Form field: reported SARS-CoV-2 infection rate of CC1(CN2CCC(n3c(=O)[nH]c4ccccc43)CC2)OCc2ccccc2-n2cccc21 (stereo not given) [zaldaride] (10 µM)
output: 112

input: Form field: reported SARS-CoV-2 infection rate of CN(C)C/C=C(/c1ccc(Br)cc1)c1cccnc1 [zimelidine] (10 µM)
output: 97

input: Form field: reported SARS-CoV-2 infection rate of OCCNCCCOc1cccc(Cl)c1Cl (0.833333 µM)
output: 112

input: Form field: reported SARS-CoV-2 infection rate of CO[C@]12C[C@@H](COC(=O)c3cncc(Br)c3)CN(C)[C@@H]1Cc1cn(C)c3cccc2c13 [nicergoline] (10 µM)
output: 81

input: Form field: reported SARS-CoV-2 infection rate of Cc1cc(/C=C/c2ccc3cc(N(C)C)ccc3[n+]2C)c(C)n1-c1ccccc1 [pyrvinium-pamoate] (10 µM)
output: 113

* * *

System: Vero E6 infected with SARS-CoV-2
Assay: inhibition of SARS-CoV-2 cytopathic effect; higher = more antiviral protection, active = above 15
Conditions: 10000 nM; 48 h
Please provide measured inhibition of SARS-CoV-2 cytopathic effect for the entries that follow.
Write the answer as a number in %, unit excluded.

input: Form field: reported inhibition of SARS-CoV-2 cytopathic effect of C[C@H](/C=C/[C@H](C)C(C)(C)O)[C@H]1CC[C@H]2/C(=C/C=C3C[C@@H](O)C[C@H](O)C3)CCC[C@]12C
output: -0.81

input: Form field: reported inhibition of SARS-CoV-2 cytopathic effect of N=C(NCc1ccc(Cl)cc1)SCCCc1c[nH]cn1
output: 0.31

input: Form field: reported inhibition of SARS-CoV-2 cytopathic effect of O=C(Oc1ccccc1C(=O)O)c1ccccc1O
output: -11.8

input: Form field: reported inhibition of SARS-CoV-2 cytopathic effect of CCCCCCCCCCOc1cc2c(O)c(C(=O)OCC)cnc2cc1OCC [decoquinate]
output: 2.03

input: Form field: reported inhibition of SARS-CoV-2 cytopathic effect of C=CCc1ccc(O)c(-c2cc(CC=C)ccc2O)c1
output: -1.19

input: Form field: reported inhibition of SARS-CoV-2 cytopathic effect of O=C1CS[C@@H](c2ccccc2Cl)c2cc(Cl)ccc2N1 (racemic)
output: 7.2

input: Form field: reported inhibition of SARS-CoV-2 cytopathic effect of CC1Oc2cc(cnc2N)-c2c(nn(C)c2C#N)CN(C)C(=O)c2ccc(F)cc21 (centres undefined)
output: 0.255

input: Form field: reported inhibition of SARS-CoV-2 cytopathic effect of CC(=O)C1=C(O)C=C2Oc3c(C(C)=O)c(O)c(C)c(O)c3C2(C)C1=O (stereo not drawn) [usniacin-(+)]
output: -4.03

input: Form field: reported inhibition of SARS-CoV-2 cytopathic effect of O=C(CCCN1CCC(O)(c2ccc(Cl)cc2)CC1)c1ccc(F)cc1
output: -1.23

* * *

Tested on: Vero E6 infected with SARS-CoV-2
Assay: inhibition of SARS-CoV-2 cytopathic effect; higher = more antiviral protection, active = above 15
Conditions: 8.33 nM; 48 h
Please provide measured inhibition of SARS-CoV-2 cytopathic effect for the entries that follow.
Write the answer as a number in %, unit excluded.

input: Form field: reported inhibition of SARS-CoV-2 cytopathic effect of CNC(=O)c1ccc2cc([C@@]3(O)CCn4cncc43)ccc2c1
output: 3.01

input: Form field: reported inhibition of SARS-CoV-2 cytopathic effect of Cc1c(-c2cnccn2)ssc1=S
output: 4.72

input: Form field: reported inhibition of SARS-CoV-2 cytopathic effect of CC(=O)O[C@H]1C[C@@H]2CC[C@@H]3[C@H](CC[C@@]4(C)[C@H]3C[C@H](N3CC[N+](C)(C)CC3)[C@@H]4OC(C)=O)[C@@]2(C)C[C@@H]1N1CC[N+](C)(C)CC1
output: -0.41

input: Form field: reported inhibition of SARS-CoV-2 cytopathic effect of Oc1cc2c(cc1O)C(c1ccccc1)CNCC2 (centres undefined)
output: 1.73

input: Form field: reported inhibition of SARS-CoV-2 cytopathic effect of CC(C)c1ccc(C(=O)c2cccs2)c(SCCCCCCCCN(C)C)n1
output: 0.45

input: Form field: reported inhibition of SARS-CoV-2 cytopathic effect of CNC(=O)c1nn(C)c2c1C(C)(C)Cc1cnc(Nc3ccc(N4CCN(C)CC4)cc3)nc1-2
output: 0.79

input: Form field: reported inhibition of SARS-CoV-2 cytopathic effect of Cc1ccc(C(=O)Nc2cccc(C(F)(F)F)c2)cc1Nc1nc(-c2cccnc2)nc2c1cnn2C
output: 0.17

input: Form field: reported inhibition of SARS-CoV-2 cytopathic effect of Nc1nc(O)c2[nH]nnc2n1
output: 2

input: Form field: reported inhibition of SARS-CoV-2 cytopathic effect of CC(C)(Oc1ccc(CCNC(=O)c2ccc(Cl)cc2)cc1)C(=O)O [bezafibrate]
output: 0.91

* * *

Please provide measured inhibition of SARS-CoV-2 cytopathic effect for the entries that follow.
Test system: Vero E6 infected with SARS-CoV-2
Assay: inhibition of SARS-CoV-2 cytopathic effect; higher = more antiviral protection, active = above 15
Settings: 100 nM; 48 h
Write the answer as a number in %, unit excluded.

input: Form field: reported inhibition of SARS-CoV-2 cytopathic effect of Oc1c(CN2CCCC2)cc(COCc2ccccc2)c2cccnc12
output: 0.87

input: Form field: reported inhibition of SARS-CoV-2 cytopathic effect of CCCCc1nn(-c2ccccc2C(F)(F)F)c(=O)n1Cc1ccc(-c2ccccc2S(=O)(=O)NC(=O)c2sccc2C)cc1
output: 2.56

input: Form field: reported inhibition of SARS-CoV-2 cytopathic effect of C[C@H]1COc2c(C3(N)CC3)c(F)cc3c(=O)c(C(=O)O)cn1c23
output: 2.15

input: Form field: reported inhibition of SARS-CoV-2 cytopathic effect of COc1ccccc1CN[C@H]1CCCN[C@H]1c1ccccc1
output: 2.38

input: Form field: reported inhibition of SARS-CoV-2 cytopathic effect of CC1(C)CCC(C)(C)c2cc(C3(c4ccc5cc(C(=O)O)ccc5c4)SCCS3)ccc21
output: 1.81

* * *

System: Vero E6 infected with SARS-CoV-2
Assay: inhibition of SARS-CoV-2 cytopathic effect; higher = more antiviral protection, active = above 15
Conditions: 833.33 nM; 48 h
READOUT LABEL: inhibition of SARS-CoV-2 cytopathic effect (%)
Write the answer as a number in %, unit excluded.

input: Give the reported inhibition of SARS-CoV-2 cytopathic effect for O=C1C(=Cc2cccnc2)C(=O)c2ccccc21 (system: Vero E6 infected with SARS-CoV-2).
output: 5.97

input: Give the reported inhibition of SARS-CoV-2 cytopathic effect for Cn1c(=O)cc(N2CCC[C@@H](N)C2)n(Cc2cc(F)ccc2C#N)c1=O (system: Vero E6 infected with SARS-CoV-2).
output: -0.45

input: Give the reported inhibition of SARS-CoV-2 cytopathic effect for CN[C@@H](C)C(=O)N[C@H](C(=O)N1CCC[C@H]1c1nc(C(=O)c2ccc(F)cc2)cs1)C1CCCCC1 (system: Vero E6 infected with SARS-CoV-2).
output: -3.07

input: Give the reported inhibition of SARS-CoV-2 cytopathic effect for CC1=C(C(=O)Nc2cc3cn[nH]c3cc2F)C(c2ccc(C(F)(F)F)cc2)CC(=O)N1 (stereo not given) (system: Vero E6 infected with SARS-CoV-2).
output: -0.29

input: Give the reported inhibition of SARS-CoV-2 cytopathic effect for CC(C)(C)c1cc(C(=O)/C(C#N)=N/Nc2cccc(Cl)c2)no1 (system: Vero E6 infected with SARS-CoV-2).
output: 2.18

* * *

System: Vero E6 infected with SARS-CoV-2
Assay: SARS-CoV-2 infection rate relative to infected DMSO; higher = more infection, active = 60 or less
Details: 24 h
READOUT LABEL: SARS-CoV-2 infection rate (%)
Write the answer as a number in %, unit excluded.

input: Form field: reported SARS-CoV-2 infection rate of CC(=O)N1CCC[C@H]1C(=O)N[C@@H](Cc1cnc[nH]1)C(=O)N[C@@H](CO)C(=O)N[C@@H](CS)C(=O)N[C@@H](CC(N)=O)C(N)=O (10 µM)
output: 93

input: Form field: reported SARS-CoV-2 infection rate of Cc1ccc(C)c(OCCCC(C)(C)C(=O)O)c1 [gemfibrozil] (10 µM)
output: 98.5

input: Form field: reported SARS-CoV-2 infection rate of Clc1cccc(Nc2nnc(-c3ccccc3)c3ccccc23)c1 (10 µM)
output: 94

input: Form field: reported SARS-CoV-2 infection rate of C1COC(NC(C2CC2)C2CC2)=N1 [rilmenidine] (10 µM)
output: 99.5

input: Form field: reported SARS-CoV-2 infection rate of CC1COc2c(N3CCN(C)CC3)c(F)cc3c(=O)c(C(=O)O)cn1c23 (centres undefined) [ofloxacin] (10 µM)
output: 104

input: Form field: reported SARS-CoV-2 infection rate of Cc1cc(C)c(Nc2ccnc(Nc3ccc(C#N)cc3)n2)c(C)c1 [dapivirine] (0.833333 µM)
output: 114

input: Form field: reported SARS-CoV-2 infection rate of Fc1cc(F)c2c(c1)[C@H]1C=CC[C@H]1C(c1cccnc1)N2 (some centres undefined) [Golgicide A] (0.833333 µM)
output: 104

input: Form field: reported SARS-CoV-2 infection rate of O=C(OCCN1CCCCC1)c1c[nH]c2ccccc12 (10 µM)
output: 102

input: Form field: reported SARS-CoV-2 infection rate of CCC(=O)NC1CCc2cccc(OC)c2C1 (centres undefined) (10 µM)
output: 93.5

The measurements presented in this section are drawn from the supplement of paper PMC13380429.
